test system: HEK293 cells overexpressing APOL1 G2; assay: APOL1 G2 HEK293 cell rescue assay (reversal of cell death caused by overexpression of APOL1); type: cell-based; conditions: Homo sapiens, HEK293, HEK293 overexpressing APOL1 G2; geometric mean of at least 2 assay runs; † = single assay run
pEC50: −log10 of the molar value.
Binary call on pEC50: T from 7 upward, F beneath that.

- molecule: "O=C1Nc2ccc(Cl)cc2C12CCN(CCOc1ccc(S(=O)(=O)C3(CO)CC3)nc1)CC2 [Compound 248]"
  group: "T"
- molecule: "O=C1CCc2cc(OCCN3CCC4(CC3)C(=O)Nc3ccc(Cl)cc34)ccc2N1CC(F)F [Compound 106]"
  group: "T"
- molecule: "C[C@]1(O)C[C@@H](n2cnc3cc(OCCN4CCC5(CC4)C(=O)Nc4ccc(Cl)cc45)cc(F)c32)C1 [Compound 454]"
  group: "T"
- molecule: "O=C1Nc2ccc(Cl)cc2C12CCN(CCOc1cnc(C(O)CO)nc1)CC2 (stereo not drawn) [Compound 330]"
  group: "F"
- molecule: "CNC(=O)N1CCc2cc(OCCN3CCC4(CC3)C(=O)Nc3ccc(C#N)cc34)ccc2C1 [Compound 246]"
  group: "F"
- molecule: "CS(=O)(=O)c1ccc(OCCN2CCC3(CC2)C(=O)Nc2ccc(C#N)cc23)cc1C(F)CF (stereo not drawn) [Compound 220]"
  group: "T"
- molecule: "C[C@]1(O)C[C@@H](N2C(=O)NCc3cc(OCCN4CCC5(CC4)C(=O)Nc4ccc(C#N)cc45)cc(C(F)(F)F)c32)C1 [Compound 457]"
  group: "F"
- molecule: "C[C@]1(O)C[C@@H](n2c(=O)[nH]c3cc(OCCN4CCC5(CC4)C(=O)Nc4ccc(Cl)cc45)cc(C(F)(F)F)c32)C1 [Compound 468]"
  group: "T"
- molecule: "CC1(Oc2ncc(OCCN3CCC4(CC3)C(=O)Nc3ccc(C#N)cc34)cn2)COC1 [Compound 173]"
  group: "F"
- molecule: "CS(=O)(=O)C1(c2ccc(OCCN3CCC4(CC3)C(=O)Nc3ccc(C#N)cc34)cc2)CC2(COC2)C1 [Compound 183]"
  group: "F"
- molecule: "CS(=O)(=O)Nc1ccc(OCCN2CCC3(CC2)C(=O)N(CCO)c2ccc(Cl)cc23)cc1C(F)(F)F [Compound 186]"
  group: "T"

###

test system: HEK293 cells overexpressing APOL1 G2; test: APOL1 G2 HEK293 cell rescue assay (reversal of cell death caused by overexpression of APOL1); type: cell-based; details: Homo sapiens, HEK293, HEK293 overexpressing APOL1 G2; geometric mean of at least 2 assay runs; † = single assay run
pEC50: −log10 of the molar value.

- compound: "CN1C(=O)Cc2cc(OCCN3CCC4(CC3)C(=O)N(C)c3ccccc34)ccc21"
  target_or_system: "HEK293 cells overexpressing APOL1 G2"
  pEC50: 5.97
- compound: "C[C@]1(O)C[C@@H](n2ncc3cc(OCCN4CCC5(CC4)C(=O)Nc4ccc(Cl)cc45)cc(C(F)(F)F)c32)C1"
  target_or_system: "HEK293 cells overexpressing APOL1 G2"
  pEC50: 8.30
- compound: "O=C1CCC2c3ccc(OCCN4CCC5(CC4)C(=O)Nc4ccc(Cl)cc45)cc3CCN12 (stereo not shown) [Compound 121]"
  target_or_system: "HEK293 cells overexpressing APOL1 G2"
  pEC50: 7.09
- compound: "CS(=O)(=O)c1c(F)cc(OCCN2CCC3(CC2)C(=O)Nc2ccccc23)cc1F"
  target_or_system: "HEK293 cells overexpressing APOL1 G2"
  pEC50: 6.46
- compound: "CC1(S(=O)(=O)c2ccc(OCCN3CCC4(CC3)C(=O)Nc3ccc(C#N)cc34)cc2)COC1"
  target_or_system: "HEK293 cells overexpressing APOL1 G2"
  pEC50: 7.04
- compound: "CS(=O)(=O)N1CC2(CN(C(=O)c3ccc(OCCN4CCC5(CC4)C(=O)Nc4ccc(Cl)cc45)cc3F)C2)C1"
  target_or_system: "HEK293 cells overexpressing APOL1 G2"
  pEC50: 7.05
- compound: "[2H]C([2H])([2H])N1C(=O)C2(CCN(CCOc3cnc(C(C)S(C)(=O)=O)nc3)CC2)c2cc(Cl)ccc21 (stereo not shown)"
  target_or_system: "HEK293 cells overexpressing APOL1 G2"
  pEC50: 7.04

###

Target: APOL1 G2 (Homo sapiens, UniProt O14791, DEL388-389)
Construct: expressed in transfected cells; host or cells: HEK293 T-REx clonal line stably expressing GCaMP6f (HEK T-REx/GCaMP6f/APOL1 G2 K6.3), doxycycline induced
Sequence (O14791 with tags, fused parts or gaps DEL388-389): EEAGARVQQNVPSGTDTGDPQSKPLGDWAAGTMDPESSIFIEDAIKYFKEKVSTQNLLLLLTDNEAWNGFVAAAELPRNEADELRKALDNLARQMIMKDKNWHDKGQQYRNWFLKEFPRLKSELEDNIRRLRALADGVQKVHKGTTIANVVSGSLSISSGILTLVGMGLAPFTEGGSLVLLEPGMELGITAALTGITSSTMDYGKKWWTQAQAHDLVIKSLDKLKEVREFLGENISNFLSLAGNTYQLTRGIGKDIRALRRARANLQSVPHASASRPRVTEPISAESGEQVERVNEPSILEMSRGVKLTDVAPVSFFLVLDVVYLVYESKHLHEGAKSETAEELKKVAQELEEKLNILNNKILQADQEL
Assay: APOL1-mediated calcium transport (calcium influx) assay, HEK T-REx/GCaMP6f/APOL1 G2 K6.3 cells, FLIPR TETRA
Assay type: cell-based
Settings: prevention of calcium influx; geometric mean of at least 2 assay runs; † = average of a technical replicate from a single assay run
reported_metric: log10(AC50) (log10 of the value in nM)

- molecule: "C[C@]1(O)C[C@@H](n2cnc3cc(OCCN4CCC5(CC4)C(=O)Nc4ccc(C#N)cc45)cc(OC(F)F)c32)C1"
  measurement: 3.06
- molecule: "O=C1Nc2ccc(Cl)cc2C12CCN(CCOc1ccc3c(cnn3C3COC3)c1)CC2"
  measurement: 2.82
- molecule: "CN=S(C)(=O)c1ccc(OCCN2CCC3(CC2)C(=O)Nc2ccc(C#N)cc23)cc1 (single isomer, unassigned) [Compound 152]"
  measurement: 3.26
- molecule: "[2H]C([2H])([2H])N1C(=O)C2(CCN(CCOc3cnc(C(C)S(C)(=O)=O)nc3)CC2)c2cc(Cl)ccc21 (stereo not shown)"
  measurement: 3.04
- molecule: "CN1C(=O)C2(CCN(CCOc3ccc(-c4cnn(C)c4)cc3)CC2)c2ccccc21"
  measurement: 2.57
- molecule: "CP(C)(=O)C1(c2ccc(OCCN3CCC4(CC3)C(=O)Nc3ccc(Cl)cc34)cc2)CC1"
  measurement: 2.64
- molecule: "CN1C(=O)C2(CCN(CCOc3ccc4nccnc4c3)CC2)c2ccccc21"
  measurement: 2.23

###

Examples of compounds with documented EC50 follow.
test system: Trypanosoma brucei Lister 427 VSG221 with APOL1 G1 recombinant protein; assay: APOL1 G1 trypanosome cell rescue assay (Example B5); assay type: cell-based; settings: Trypanosoma brucei, 20 h, read-out: APOL1 G1 Trypanosome Rescue EC50, Trypanosoma brucei Lister 427 VSG221 with APOL1 G1 recombinant protein, 20 hours, CellTiter-Glo; geometric mean of at least 2 assay runs; † = single assay run

- compound: "CC(=O)N(C)CCS(=O)(=O)c1ccc(OCCN2CCC3(CC2)C(=O)Nc2ccc(Cl)cc23)cc1 [Compound 193]"
  EC50 (nM): 288
- compound: "CS(=O)(=O)C1(c2ccc(OCCN3CCC4(CC3)C(=O)Nc3ccc(Cl)cc34)cc2C(F)(F)F)COC1 [Compound 165]"
  EC50 (nM): 33.8
- compound: "CS(=O)(=O)c1ccc(OCCN2CCC3(CC2)C(=O)Nc2ccc(Cl)cc23)cc1Cl [Compound 155]"
  EC50 (nM): 36.1
- compound: "O=C1CCc2cc(OCCN3CCC4(CC3)C(=O)Nc3ccc(Cl)cc34)ccc2N1[C@H]1C[C@H](O)C1 [Compound 224]"
  EC50 (nM): 92.8
- compound: "O=C1CCc2cc(OCCN3CCC4(CC3)C(=O)Nc3ccc(C(F)F)cc34)cnc2N1C1CC(CO)C1 (single isomer, unassigned) [Compound 309]"
  EC50 (nM): 70.6
- compound: "O=C1CCc2cc(OCCN3CCC4(CC3)C(=O)Nc3ccc(Cl)cc34)cnc2N1CCO [Compound 192]"
  EC50 (nM): 142
- compound: "CC(=O)c1ncc(OCCN2CCC3(CC2)C(=O)Nc2ccc(Cl)cc23)cc1C(F)(F)F [Compound 294]"
  EC50 (nM): 89

###

molecular target: APOL1 G2 (Homo sapiens, UniProt O14791, DEL388-389); construct: expressed in transfected cells; host or cells: HEK293 T-REx clonal line stably expressing GCaMP6f (HEK T-REx/GCaMP6f/APOL1 G2 K6.3), doxycycline induced; experiment: APOL1-mediated calcium transport (calcium influx) assay, HEK T-REx/GCaMP6f/APOL1 G2 K6.3 cells, FLIPR TETRA; assay type: cell-based; conditions: prevention of calcium influx; geometric mean of at least 2 assay runs; † = average of a technical replicate from a single assay run
reported_metric: AC50 (nM)

- molecule: "O=C1Nc2ccc(Cl)cc2C12CCN(CCOc1ccc(S(=O)(=O)[C@H]3C[C@H](O)C3)cc1)CC2 [Compound 215]"
  target_or_system: "APOL1 G2 (Homo sapiens, UniProt O14791, DEL388-389)"
  reported_metric: "AC50"
  unit_tag: "nM"
  measurement: 1130
- molecule: "CS(=O)(=O)C1(c2ccc(OCCN3CCC4(CC3)C(=O)N(CCO)c3ccc(Cl)cc34)cc2)COC1 [Compound 160]"
  target_or_system: "APOL1 G2 (Homo sapiens, UniProt O14791, DEL388-389)"
  reported_metric: "AC50"
  unit_tag: "nM"
  measurement: 898
- molecule: "C[C@]1(O)C[C@@H](n2ncc3cc(OCCN4CCC5(CC4)C(=O)Nc4ccc(C#N)cc45)cc(C(F)(F)F)c32)C1 [Compound 465]"
  target_or_system: "APOL1 G2 (Homo sapiens, UniProt O14791, DEL388-389)"
  reported_metric: "AC50"
  unit_tag: "nM"
  measurement: 748
- molecule: "CC1(O)CN(c2ncc(OCCN3CCC4(CC3)C(=O)Nc3ccc(C#N)cc34)cc2C(F)(F)F)C1 [Compound 431]"
  target_or_system: "APOL1 G2 (Homo sapiens, UniProt O14791, DEL388-389)"
  reported_metric: "AC50"
  unit_tag: "nM"
  measurement: 4870
- molecule: "CS(=O)(=O)C1(c2c(F)cc(OCCN3CCC4(CC3)C(=O)Nc3ccc(C#N)cc34)cc2F)COC1 [Compound 84]"
  target_or_system: "APOL1 G2 (Homo sapiens, UniProt O14791, DEL388-389)"
  reported_metric: "AC50"
  unit_tag: "nM"
  measurement: 1450
- molecule: "CC1(O)CC(N2C(=O)CCc3cc(OCCN4CCC5(CC4)C(=O)Nc4ccc(Cl)cc45)cnc32)C1 (stereo not shown) [Compound 315]"
  target_or_system: "APOL1 G2 (Homo sapiens, UniProt O14791, DEL388-389)"
  reported_metric: "AC50"
  unit_tag: "nM"
  measurement: 330
- molecule: "CC(=O)N1CCCc2cc(OCCN3CCC4(CC3)C(=O)Nc3ccc(Cl)cc34)cnc21 [Compound 80]"
  target_or_system: "APOL1 G2 (Homo sapiens, UniProt O14791, DEL388-389)"
  reported_metric: "AC50"
  unit_tag: "nM"
  measurement: 375
